# target-entity: Neutrophil elastase (Homo sapiens) (UniProt P08246)
# measurement-protocol: Percent inhibition in elastase-induced lung haemorrhage, when the compound is dosed orally at 30 mg/kg 30 min before challenge by HLE (Human leukocyte elastase)
# Type: functional, organism-based
# Parameters: dose 30 mg/kg
Given measured inhibition, output 1 (yes) if it is greater than or equal to 10% and 0 (no) if not.

Look over these answered cases.
CCC1(CC)C(=O)N(C(=O)NCc2ccc(N)cc2)C1Oc1ccc(C(=O)O)cc1 (stereo not given) ... 0 (no)
CCC1(CC)C(=O)N(C(=O)NCCCc2ccccc2)C1Oc1ccc(C(=O)O)cc1 (stereo not given) ... 1 (yes)
CCC1(CC)C(=O)N(C(=O)NCc2ccc(SC)cc2)C1Oc1ccc(C(=O)O)cc1 (stereo not given) ... 1 (yes)
CCC1(CC)C(=O)N(C(=O)NCCC(=O)c2ccccc2)C1Oc1ccc(C(=O)O)cc1 (stereo not given) ... 0 (no)

# ---- query compound ----
Reported inhibition reaches at least 10% for CCC1(CC)C(=O)N(C(=O)NCc2cccc(C)c2)C1Oc1ccc(C(=O)O)cc1 (stereo not given) ?
1 (yes)

* * *

# target-entity: Neutrophil elastase (Homo sapiens) (UniProt P08246)
# Sequence (whole entry): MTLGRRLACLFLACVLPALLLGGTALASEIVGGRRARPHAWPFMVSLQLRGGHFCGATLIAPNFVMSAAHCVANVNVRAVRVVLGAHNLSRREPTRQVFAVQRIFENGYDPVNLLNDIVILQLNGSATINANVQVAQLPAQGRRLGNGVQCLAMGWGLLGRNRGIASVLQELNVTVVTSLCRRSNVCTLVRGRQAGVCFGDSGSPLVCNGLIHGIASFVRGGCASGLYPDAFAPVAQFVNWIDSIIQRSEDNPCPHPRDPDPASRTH
# measurement-protocol: Percent inhibition in elastase-induced lung haemorrhage, when the compound is dosed orally at 30 mg/kg 30 min before challenge by HLE (Human leukocyte elastase)
# Assay type: functional, organism-based
# Set-up: dose 30 mg/kg
Think of 30% as a floor: if inhibition stands on it or above, it is true (1); beneath it, false (0).

Known results for compounds:
CCC1(CC)C(=O)N(C(=O)NCc2ccccc2)C1Oc1ccc(C(=O)O)cc1 (stereo not given) ... true (1)
CCC1(CC)C(=O)N(C(=O)NCc2ccc(C)c(C)c2)C1Oc1ccc(C(=O)O)cc1 (stereo not given) ... true (1)

Given the entry CCC1(CC)C(=O)N(C(=O)NCc2ccccc2O)C1Oc1ccc(C(=O)O)cc1 (stereo not given) , answer whether its inhibition meets or surpasses 30%.
false (0)

What would you report for CCC1(CC)C(=O)N(C(=O)NCCc2ccccc2)C1Oc1ccc(C(=O)O)cc1 (stereo not given) ?
true (1)

And the next one, CCC1(CC)C(=O)N(C(=O)NCCCOc2ccccc2)C1Oc1ccc(C(=O)O)cc1 (stereo not given) ?
true (1)

* * *

# target-entity: Neutrophil elastase (Homo sapiens) (UniProt P08246)
# measurement-protocol: elastase inhibitory activity, evaluated for second order rate constant (time-dependent inhibition)
property-name: log10 of second order rate constant kobs/[I] (log10 of the value in M⁻¹ s⁻¹)
Heads up, the numbers here are log10 of second order rate constant kobs/[I] in M⁻¹ s⁻¹ units.

Report log10 of second order rate constant kobs/[I] for CCC1(CC)C(=O)N(C(=O)NCc2ccccc2N)C1Oc1ccc(C(=O)O)cc1 (stereo unspecified) please.
3.08

Entry to check: CCC1(CC)C(=O)N(C(=O)NCc2ccc(C)cc2)C1Oc1ccc(CC(=O)O)cc1 (stereo unspecified)
3.65

Continue with CCC1(CC)C(=O)N(C(=O)NCc2ccc(O)cc2)C1Oc1ccc(C(=O)O)cc1 (stereo unspecified)
3.48

Could you do the same for CCC1(CC)C(=O)N(C(=O)NCc2ccc3ccccc3c2)C1Oc1ccc(C(=O)O)cc1 (stereo unspecified) , please?
4.33

Cool, now CCN(Cc1ccccc1)C(=O)N1C(=O)C(CC)(CC)C1Oc1ccc(C(=O)O)cc1 (stereo unspecified)
3.36

Repeat with CCC1(CC)C(=O)N(C(=O)NCc2ccc(C)cc2)C1Oc1ccc(C(=O)O)cc1 (stereo unspecified)
3.60

Please do the same for CCC1(CC)C(=O)N(C(=O)NCc2ccc(C(=O)O)cc2)C1Oc1ccc(C(=O)O)cc1 (stereo unspecified) as well.
3.34

Entry CCC1(CC)C(=O)N(C(=O)NCc2cccc3ccccc23)C1Oc1ccc(C(=O)O)cc1 (stereo unspecified) please
3.92

Now consider CCC1(CC)C(=O)N(C(=O)NCc2ccc(SC)cc2)C1Oc1ccc(C(=O)O)cc1 (stereo unspecified) .
3.97

What about CCC1(CC)C(=O)N(C(=O)NCc2ccc3c(c2)OCO3)C1Oc1ccc(C(=O)O)cc1 (stereo unspecified) ?
3.70

What do we get for CCC1(CC)C(=O)N(C(=O)NCc2ccc(OCc3ccccc3)cc2)C1Oc1ccc(C(=O)O)cc1 (stereo unspecified) ?
4.08
